- assay.target: Adrenergic receptor beta; ADRB1 & ADRB3 (Homo sapiens) (UniProt P08588+P13945)
- Sequence (P08588 whole entry, looked up): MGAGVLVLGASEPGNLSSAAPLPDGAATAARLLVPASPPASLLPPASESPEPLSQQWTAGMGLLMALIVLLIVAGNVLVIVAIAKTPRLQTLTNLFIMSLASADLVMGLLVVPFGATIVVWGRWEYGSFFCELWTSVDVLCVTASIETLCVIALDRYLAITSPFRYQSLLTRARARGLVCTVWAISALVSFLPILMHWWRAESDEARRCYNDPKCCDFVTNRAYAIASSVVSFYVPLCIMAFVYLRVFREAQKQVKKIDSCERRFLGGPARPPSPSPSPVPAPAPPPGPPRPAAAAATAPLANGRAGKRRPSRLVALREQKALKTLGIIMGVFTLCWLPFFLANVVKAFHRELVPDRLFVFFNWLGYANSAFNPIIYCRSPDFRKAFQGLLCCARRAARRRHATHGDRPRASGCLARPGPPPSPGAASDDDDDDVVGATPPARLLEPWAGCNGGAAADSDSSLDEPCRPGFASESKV
- Sequence (P13945 whole entry, looked up): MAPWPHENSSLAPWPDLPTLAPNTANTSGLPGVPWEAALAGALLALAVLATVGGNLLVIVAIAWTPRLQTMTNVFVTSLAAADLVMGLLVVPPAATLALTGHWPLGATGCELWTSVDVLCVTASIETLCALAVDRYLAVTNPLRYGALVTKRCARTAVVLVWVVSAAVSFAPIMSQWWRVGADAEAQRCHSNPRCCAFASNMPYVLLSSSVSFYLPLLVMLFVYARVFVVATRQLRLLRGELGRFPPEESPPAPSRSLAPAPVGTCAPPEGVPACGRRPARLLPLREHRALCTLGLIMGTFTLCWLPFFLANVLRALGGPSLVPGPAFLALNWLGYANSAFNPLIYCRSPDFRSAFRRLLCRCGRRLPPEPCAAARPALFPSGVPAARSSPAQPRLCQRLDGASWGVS
- assay.method.text: Selectivity measured as the ratio of Ki of Beta-1 Adrenergic receptor to the Ki of Beta-3 Adrenergic receptor
- Type: protein assay
test.readout: Selectivity
In your answer, state the number alone without any accompanying words.

CS(=O)(=O)Nc1cc(C(O)CNC(Cc2ccccc2)c2ccccc2)ccc1O (stereo not given) : 15
COC(=O)CCCCC(Cc1ccccc1)NCC(O)c1ccc(O)c(NS(C)(=O)=O)c1 (stereo not given) : 26
CS(=O)(=O)Nc1cc(C(O)CNC(Cc2ccccc2)C2CCCCC2)ccc1O (stereo not given) : 7

Consider the molecule CCc1ccc(C(Cc2ccccc2)NCC(O)c2ccc(O)c(NS(C)(=O)=O)c2)cc1CC (stereo not given) and give its measured Selectivity.
6

Proceed to CNC(=O)CCCCC(Cc1ccccc1)NCC(O)c1ccc(O)c(NS(C)(=O)=O)c1 (stereo not given)
7

###

For Beta-3 adrenergic receptor (Homo sapiens, UniProt P13945), measured pKi is reported for the entries below.
# pKi is unitless: minus log10 of the molar concentration; print number only

Example molecules with recorded pKi:
CS(=O)(=O)Nc1cc(C(O)CNC(CCCCCO)Cc2ccccc2)ccc1O (configuration not stated) : 6.32
COc1ccc(C(Cc2ccccc2)NCC(O)c2ccc(O)c(NS(C)(=O)=O)c2)cc1OC (configuration not stated) : 7.48
COc1ccc([C@H](Cc2ccccc2)NC[C@H](O)c2ccc(O)c(NS(C)(=O)=O)c2)cc1OC : 6.49
COc1ccc(CCNCC(O)c2ccc(O)c(NS(C)(=O)=O)c2)cc1OC (configuration not stated) : 6.26
COC(=O)COc1ccc(CCNCC(O)c2ccc(O)c(NS(C)(=O)=O)c2)cc1 (configuration not stated) : 5.48

Consider the molecule CC(=O)Nc1ccc(C(NC[C@H](O)c2ccc(O)c(NS(C)(=O)=O)c2)c2ccc(NC(C)=O)cc2)cc1 and give its measured pKi.
6.52

Proceed to COCc1ccc(C(NC[C@H](O)c2ccc(O)c(NS(C)(=O)=O)c2)c2ccc(COC)cc2)cc1
6.01

###

- assay.target: Beta-3 adrenergic receptor (Homo sapiens)
- assay.method.text: Human beta-3 adrenergic receptor agonist activity by measurement of cAMP accumulation levels in CHO membranes expressing human beta-3 receptor.
- Assay type: functional, cell membranes
- Sequence (P13945 whole entry, looked up): as above
Here, each record is paired with measured Intrinsic activity data.

Example compounds with recorded Intrinsic activity:
COc1ccc(CNCC(O)c2ccc(O)c(NS(C)(=O)=O)c2)cc1 (centres undefined) : 95%
CS(=O)(=O)Nc1cc([C@@H](O)CNC(c2ccc(F)cc2)c2ccc(F)cc2)ccc1O : 70%
CS(=O)(=O)Nc1cc(C(O)CN)ccc1O (centres undefined) : 93%
COC(=O)COc1ccc(CCNCC(O)c2ccc(O)c(NS(C)(=O)=O)c2)cc1 (centres undefined) : 79%
CC(C)NCC(O)c1ccc(O)c(NS(C)(=O)=O)c1 (centres undefined) [SOTERENOL] : 109%

Lab note: need Intrinsic activity for COc1ccc(C(Cc2ccccc2)NCC(O)c2ccc(O)c(NS(C)(=O)=O)c2)cc1 (centres undefined) on Beta-3 adrenergic receptor (Homo sapiens), anyone have it?
99%

Proceed to CN(C)C(=O)c1ccc(C(NC[C@H](O)c2ccc(O)c(NS(C)(=O)=O)c2)c2ccc(C(=O)N(C)C)cc2)cc1
43%

Proceed to CS(=O)(=O)Nc1cc([C@@H](O)CNC(c2ccc(OC(F)F)cc2)c2ccc(OC(F)F)cc2)ccc1O
77%

Proceed to COc1ccc([C@H](Cc2ccccc2)NC[C@H](O)c2ccc(O)c(NS(C)(=O)=O)c2)cc1OC
93%

Values were extracted from ChEMBL document CHEMBL1133857.
